Where do the numbers come from? From ChEMBL document CHEMBL1139541.

# test system: Melatonin receptor type 1B (Homo sapiens, UniProt P49286)
measurement name: Ki

// output Ki; input `CCC(=O)NCc1cc2c(OC)cccc2n1C(=O)c1ccc(Cl)cc1` ; system Melatonin receptor type 1B (Homo sapiens, UniProt P49286) 1820 nM

###

# test system: Melatonin receptor type 1B (Homo sapiens) (UniProt P49286)
# Sequence (P49286 whole entry): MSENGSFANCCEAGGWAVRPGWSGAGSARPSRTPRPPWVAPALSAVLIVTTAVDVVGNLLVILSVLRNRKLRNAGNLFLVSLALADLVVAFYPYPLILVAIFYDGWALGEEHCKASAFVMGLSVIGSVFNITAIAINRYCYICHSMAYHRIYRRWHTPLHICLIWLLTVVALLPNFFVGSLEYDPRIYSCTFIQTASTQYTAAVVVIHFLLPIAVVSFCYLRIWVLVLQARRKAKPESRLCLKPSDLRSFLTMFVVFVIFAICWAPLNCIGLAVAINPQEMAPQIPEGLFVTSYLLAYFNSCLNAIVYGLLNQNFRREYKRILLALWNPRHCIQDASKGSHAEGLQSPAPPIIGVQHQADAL
# protocol notes: Intrinsic activity in [35S]GTP-gamma-S, binding at human melatonin receptor MT2 relative to melatonin
# Type: functional
Recorded IA, one value per entry.
// keep it numeric: no unit symbol after the value

# structure string, test system, IA
measured = [
    ("CCC(=O)NCc1cc2c(OC)cccc2n1C(=O)c1ccc(Cl)cc1", "Melatonin receptor type 1B (Homo sapiens) (UniProt P49286)", -0.08),
    ("CCC(=O)NCc1cc2c(OC)cccc2n1Cc1ccc(Cl)cc1", "Melatonin receptor type 1B (Homo sapiens) (UniProt P49286)", 0.01),
    ("CCC(=O)NCc1cc2c(OC)cccc2n1S(=O)(=O)c1ccccc1", "Melatonin receptor type 1B (Homo sapiens) (UniProt P49286)", 0.08),
]

Continue with the compound presented below.
Give the reported value of IA for this record: `CCC(=O)NCc1cc2c(OC)cccc2n1Cc1c(C)cccc1C` 0.16
